- Test system: Liver
- TEST SUMMARY: Drug uptake in rat liver assessed per gram of tissue at 10 mg/kg, po measured at 6 hrs
- Type: ADME, organism-based
- Parameters: dose 10 mg/kg, route oral
- RECORDED CONDITIONS: in vivo
Response key: Fulfilled means liver concentration >= 900 ng/g; Not fulfilled means liver concentration < 900 ng/g.

CCc1cc2cc(-c3c(C)nc(NCc4cc(OC)cc(OC)c4)nc3N[C@@H]3C[C@H](CO)[C@@H](O)[C@H]3O)oc2cn1.Cl = Not fulfilled
CNc1nc(C)c(-c2cc3cc(OC)nc(C)c3o2)c(N[C@@H]2C[C@H](CO)[C@@H](O)[C@H]2O)n1.Cl = Not fulfilled
CCc1cc2cc(-c3c(C)nc(NC)nc3N[C@@H]3C[C@H](CO)[C@@H](O)[C@H]3O)oc2cn1.Cl = Fulfilled
COc1cc2cc(-c3c(C)nc(NCC(C)(C)C)nc3N[C@@H]3C[C@H](CO)[C@@H](O)[C@H]3O)oc2c(C)n1.Cl = Fulfilled
CCOc1cc2cc(-c3c(C)nc(NCCOC)nc3N[C@@H]3C[C@H](CO)[C@@H](O)[C@H]3O)oc2c(C)n1.Cl = Not fulfilled
CCOc1cc2cc(-c3c(C)nc(NC)nc3N[C@@H]3C[C@H](CO)[C@@H](O)[C@H]3O)oc2c(C)n1.Cl = Not fulfilled
CCOc1cc2cc(-c3c(C)nc(NCC(F)(F)F)nc3N[C@@H]3C[C@H](CO)[C@@H](O)[C@H]3O)oc2c(C)n1.Cl = Fulfilled
CCCCCNc1nc(C)c(-c2cc3cc(CC)ncc3o2)c(N[C@@H]2C[C@H](CO)[C@@H](O)[C@H]2O)n1.Cl = Not fulfilled
CCOc1cc2cc(-c3c(C)nc(Nc4ccccc4)nc3N[C@@H]3C[C@H](CO)[C@@H](O)[C@H]3O)oc2c(C)n1.Cl = Fulfilled
CCOCCNc1nc(C)c(-c2cc3cc(CC)ncc3o2)c(N[C@@H]2C[C@H](CO)[C@@H](O)[C@H]2O)n1.Cl = Not fulfilled
CCOc1cc2cc(-c3c(C)nc(NCC4CC4)nc3N[C@@H]3C[C@H](CO)[C@@H](O)[C@H]3O)oc2c(C)n1.Cl = Fulfilled
CCc1cc2cc(-c3c(C)nc(NCC(C)C)nc3N[C@@H]3C[C@H](CO)[C@@H](O)[C@H]3O)oc2cn1.Cl = Not fulfilled

---

Collected AUC values appear next to each entry.
- TEST SUMMARY: AUC in dog at 3 mg/kg, po
- Format: ADME, organism-based, Canis lupus familiaris
- Parameters: dose 3 mg/kg, route oral
- RECORDED CONDITIONS: plasma
QUANTITY KIND: AUC (µM·h)

CCc1cc2cc(-c3c(C)nc(NCC(F)(F)F)nc3N[C@@H]3C[C@H](CO)[C@@H](O)[C@H]3O)oc2cn1.Cl = 6.4
CCOc1cc2cc(-c3c(C)nc(NCC4CC4)nc3N[C@@H]3C[C@H](CO)[C@@H](O)[C@H]3O)oc2c(C)n1.Cl = 1.6

---

- TEST SUMMARY: Oral bioavailability in dog at 3 mg/kg
- Assay type: ADME, organism-based, Canis lupus familiaris
- RECORDED CONDITIONS: in vivo
QUANTITY KIND: bioavailability (%)

CCc1cc2cc(-c3c(C)nc(NCC(F)(F)F)nc3N[C@@H]3C[C@H](CO)[C@@H](O)[C@H]3O)oc2cn1.Cl = 83
CCOc1cc2cc(-c3c(C)nc(NCC4CC4)nc3N[C@@H]3C[C@H](CO)[C@@H](O)[C@H]3O)oc2c(C)n1.Cl = 15
